Tested on: Plasmodium berghei
Assay: Luciferase/luciferin-expressing antifolate-resistant parasites were used to infect a culture of HepG2 cells that were pre-incubated with compounds. Infected hepatocytes emit light due to the luciferase reaction. Assay results are presented as the percent inhibition of light emission compared to control. […]
Format: functional
Details: sporozoite, read-out: LUCIFERASE INFECTION ASSAY - IC90
assay-readout: IC90

Study these solved cases before continuing.
[[record]]
substance_smiles = "COc1ccccc1-c1cnc2c(Nc3ccc(NS(=O)(=O)c4ccc(C)cc4)cc3)nccn12"
measurement = "> 6.8 µM"

[[record]]
substance_smiles = "CCCOc1ccccc1NC(=O)COc1nnc2ccccn12"
measurement = "> 10 µM"

[[record]]
substance_smiles = "CC(C)c1ccc(NC(=O)Nc2ccc3nc(-c4ccccn4)nn3c2)cc1"
measurement = "4.2 µM"


Proceeding to the next compound to report its IC90.
IN: Provide value of IC90 for this record tested with Plasmodium berghei: `C=C(C)CSc1nc2cc(-c3ccc(C)cc3)sc2c(=O)n1Cc1ccccc1`
OUT: > 10 µM
